Let's look at some compounds and their measured DC50.
# assayed.system: Androgen Receptor (Homo sapiens)
# Construct: endogenous in cells; host or cells: VCaP cells
# Sequence (P10275 whole entry): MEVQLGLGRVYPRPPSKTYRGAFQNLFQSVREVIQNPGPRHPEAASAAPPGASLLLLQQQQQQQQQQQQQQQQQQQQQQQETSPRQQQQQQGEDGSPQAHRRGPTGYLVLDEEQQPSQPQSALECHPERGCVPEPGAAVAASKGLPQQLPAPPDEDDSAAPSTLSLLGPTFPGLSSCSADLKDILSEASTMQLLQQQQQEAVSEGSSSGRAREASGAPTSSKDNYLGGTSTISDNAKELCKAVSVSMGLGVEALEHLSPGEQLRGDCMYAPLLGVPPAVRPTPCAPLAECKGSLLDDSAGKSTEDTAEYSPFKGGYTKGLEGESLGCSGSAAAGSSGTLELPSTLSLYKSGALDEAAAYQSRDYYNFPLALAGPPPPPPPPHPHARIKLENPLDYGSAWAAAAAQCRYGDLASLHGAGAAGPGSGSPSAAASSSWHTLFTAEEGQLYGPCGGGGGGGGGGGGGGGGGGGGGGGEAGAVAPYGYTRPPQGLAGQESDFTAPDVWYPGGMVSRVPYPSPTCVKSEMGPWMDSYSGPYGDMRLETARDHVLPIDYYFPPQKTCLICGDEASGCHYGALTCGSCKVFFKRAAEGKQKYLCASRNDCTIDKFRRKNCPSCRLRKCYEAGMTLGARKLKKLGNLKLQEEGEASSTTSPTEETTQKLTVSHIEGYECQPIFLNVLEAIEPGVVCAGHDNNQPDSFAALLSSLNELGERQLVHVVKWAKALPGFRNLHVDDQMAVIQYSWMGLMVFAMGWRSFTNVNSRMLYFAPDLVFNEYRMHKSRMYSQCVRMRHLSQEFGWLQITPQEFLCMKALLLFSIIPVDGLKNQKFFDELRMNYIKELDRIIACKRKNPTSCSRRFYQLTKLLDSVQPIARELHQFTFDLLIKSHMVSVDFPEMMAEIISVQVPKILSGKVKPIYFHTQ
# protocol.summary: Androgen Receptor ELISA assay (PathScan AR ELISA) in VCaP cells: AR degradation, Dmax and DC50
# Assay type: cell-based
# measurement.parameters: VCaP cells; Table 35; read-out: VCaP DC50

* CC(C)(C)[C@H](NC(=O)COCCCCCNc1ccc(C(=O)N[C@H]2C(C)(C)[C@H](Oc3ccc(C#N)c(Cl)c3)C2(C)C)cc1)C(=O)N1C[C@H](O)C[C@H]1C(=O)NCc1ccc(C#N)cn1 | < 50 nM

[in] Name the reported DC50 value associated with the compound "Cc1ncsc1-c1ccc([C@H](C)NC(=O)[C@@H]2C[C@@H](O)CN2C(=O)[C@H](C(C)C)n2cc(OCC3CCN(c4ccc(C(=O)N[C@H]5C(C)(C)[C@H](Oc6ccc(C#N)c(Cl)c6)C5(C)C)cc4)CC3)cn2)cc1"
[out] > 501 nM

[in] Look up DC50: "Cc1ncsc1-c1ccc([C@@H](CN(C)C)NC(=O)[C@@H]2C[C@@H](O)CN2C(=O)[C@@H](NC(=O)COCCCCCOc2ccc(C(=O)N[C@H]3C(C)(C)[C@H](Oc4ccc(C#N)c(Cl)c4)C3(C)C)cc2)C(C)(C)C)cc1"
[out] > 501 nM

[in] Give the measured DC50 of "Cc1ncsc1-c1ccc(CNC(=O)[C@@H]2C[C@@H](O)CN2C(=O)[C@@H](NC(=O)COCCCOCCCCCOc2ccc(N3C(=S)N(c4cccc(C(F)(F)F)c4)C(=O)C3(C)C)cc2)C(C)(C)C)cc1" .
[out] 51 to 500 nM

[in] Requested field: DC50. Item: "C[C@H](NC(=O)[C@@H]1C[C@@H](O)CN1C(=O)[C@@H](NC(=O)COCCCCCNc1ccc(C(=O)N[C@H]2C(C)(C)[C@H](Oc3ccc(C#N)c(Cl)c3)C2(C)C)cc1)C(C)(C)C)c1ccc(-c2c[nH]nn2)cc1"
[out] < 50 nM

[in] Entry "Cc1ncsc1-c1ccc([C@H](CN(C)C)NC(=O)[C@@H]2C[C@@H](O)CN2C(=O)[C@@H](NC(=O)COCCCCCOc2ccc(C(=O)N[C@H]3C(C)(C)[C@H](Oc4ccc(C#N)c(Cl)c4)C3(C)C)cc2)C(C)(C)C)cc1" : reported DC50 = ?
[out] < 50 nM

* * *

# assayed.system: Androgen Receptor (Homo sapiens)
# Construct: endogenous in cells; host or cells: VCaP cells
# protocol.summary: Androgen Receptor ELISA assay (PathScan AR ELISA) in VCaP cells: AR degradation, Dmax and DC50
# Type: cell-based
# measurement.parameters: VCaP, highest percentage of Androgen Receptor degradation observed, VCaP cells; read-out: VCaP Dmax (%)
compounds and their reported Dmax

Examples with their reported Dmax follow.
• COc1cc(N2C(=O)C(C)(C)N(c3ccc(OCCCCOCCCOCC(=O)N[C@H](C(=O)N4C[C@H](O)C[C@H]4C(=O)NCc4ccc(-c5cnco5)cc4)C(C)(C)C)c(F)c3)C2=S)ccc1C#N [Example 49] = 51 to 70%
• Cc1ncsc1-c1ccc(CNC(=O)[C@@H]2C[C@@H](O)CN2C(=O)[C@@H](NC(=O)COCCCOCCCCOc2ccc(N3C(=S)N(c4cnc(C#N)c(C(F)(F)F)c4)C(=O)C3(C)C)cc2F)C(C)(C)C)cc1 [Example 48] = 51 to 70%
• Cc1ncsc1-c1ccc(CNC(=O)[C@@H]2C[C@@H](O)CN2C(=O)[C@@H](NC(=O)COCCCOCCCCOc2ccc(N3C(=S)N(c4cnc(C#N)c(Cl)c4)C(=O)C3(C)C)cc2)C(C)(C)C)cc1 [Example 37] = > 71%

[in] Item Cc1ncsc1-c1ccc(CNC(=O)[C@@H]2C[C@@H](O)CN2C(=O)[C@@H](NC(=O)COCCCOCCCCOc2ccc(N3C(=S)N(c4cnc(C#N)c(C(F)(F)F)c4)C(=O)C3(C)C)cc2)C(C)(C)C)cc1 [Example 30] has what recorded Dmax?
[out] > 71%

[in] Any idea what its Dmax is? The compound is CC(C)(C)[C@H](NC(=O)COCCCOCCCCOc1ccc(N2C(=S)N(c3cnc(C#N)c(C(F)(F)F)c3)C(=O)C2(C)C)cc1F)C(=O)N1C[C@H](O)C[C@H]1C(=O)NCc1ccc(-c2cnco2)cc1 [Example 47]
[out] 51 to 70%

[in] Would you kindly share the measured Dmax for COc1cc(N2C(=O)C(C)(C)N(c3ccc(OCCCCOCCCOCC(=O)N[C@H](C(=O)N4C[C@H](O)C[C@H]4C(=O)NCc4ccc(-c5scnc5C)cc4)C(C)(C)C)cc3)C2=S)ccc1C#N [Example 32] ?
[out] 51 to 70%

[in] # Dmax lookup, item COc1cc(N2C(=O)C(C)(C)N(c3ccc(OCCCCOCCCOCC(=O)N[C@H](C(=O)N4C[C@H](O)C[C@H]4C(=O)NCc4ccc(-c5scnc5C)cc4)C(C)(C)C)c(F)c3)C2=S)ccc1C#N [Example 42]
[out] 51 to 70%
